Reference source for all entries: patent US9169240B2

- measurement-target: Endothelial lipase (EL) (Homo sapiens (Human), UniProt Q9Y5X9)
- Sequence (Q9Y5X9 21-500): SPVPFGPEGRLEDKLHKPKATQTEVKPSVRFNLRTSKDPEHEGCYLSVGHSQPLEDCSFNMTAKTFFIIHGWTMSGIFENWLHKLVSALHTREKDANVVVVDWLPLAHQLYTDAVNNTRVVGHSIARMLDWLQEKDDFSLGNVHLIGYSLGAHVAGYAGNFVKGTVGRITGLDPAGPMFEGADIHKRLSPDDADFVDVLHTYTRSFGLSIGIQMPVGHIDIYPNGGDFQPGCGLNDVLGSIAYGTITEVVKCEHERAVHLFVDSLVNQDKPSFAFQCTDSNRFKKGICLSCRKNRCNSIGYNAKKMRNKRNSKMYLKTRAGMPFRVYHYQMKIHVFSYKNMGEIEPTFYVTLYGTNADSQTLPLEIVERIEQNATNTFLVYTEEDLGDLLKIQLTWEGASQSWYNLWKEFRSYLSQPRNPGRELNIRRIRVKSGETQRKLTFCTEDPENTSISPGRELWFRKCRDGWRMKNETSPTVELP
pIC50: −log10 of the molar value.
Give Satisfied when the value for pIC50 is at least 7. Give Not satisfied when it is less.

Decide: is the reported value of pIC50 for O=C(c1nnc(CC2CCNC2=O)o1)c1nc2ccc(-c3ccccc3)cc2s1 (stereo not drawn) [Example 3] equal to or greater than 7? Satisfied

Decide: is the reported value of pIC50 for "O=C(c1nnc(CCC2CCN(CC3CC3)CC2)o1)c1nc2ccc(-c3ccccc3)cc2s1" equal to or greater than 7? Satisfied

Decide: is the reported value of pIC50 for "O=C(c1nnc(N2CCN(c3ccc(C(F)(F)F)cc3)CC2)o1)c1nc2ccc(-c3ccccc3)cc2s1" equal to or greater than 7? Not satisfied

Decide: is the reported value of pIC50 for "Cc1ccc(S(=O)(=O)Nc2nnc(C(=O)c3nc4ccc(-c5ccccc5)cc4s3)o2)cc1" equal to or greater than 7? Not satisfied

Decide: is the reported value of pIC50 for "O=C(c1nnc(CCc2ncc(-c3ccccc3)o2)o1)c1nc2ccc(-c3ccccc3)cc2s1" equal to or greater than 7? Satisfied

---

Below are molecules with their IC50 as measured on Endothelial lipase (EL) (Homo sapiens (Human)).
Numbers only, in nM.

Answered cases to consult:
O=C(c1nnc(N[C@H]2CCOC2=O)o1)c1nc2ccc(-c3ccccc3)cc2s1 [Example 57]	22
CC(C)(C)OC(=O)N[C@H]1CC[C@H](c2nnc(C(=O)c3nc4ccc(-c5ccccc5)cc4s3)o2)CC1 [Example 16]	31

Specify measured IC50 for CN1CCC(Nc2nnc(C(=O)c3nc4ccc(-c5ccccc5)cc4s3)o2)C1=O (stereo not shown) [Example 70] . 190

---

Below are compounds with their IC50 as measured on Endothelial lipase (EL) (Homo sapiens (Human)).

O=C(Cc1nnc(C(=O)c2nc3ccc(-c4ccccc4)cc3s2)o1)NC1CC1	< 0.01 µM

Can you give me IC50 for all of these, one by one?
1. CC(C)(C)OC(=O)N1CCC(c2nnc(C(=O)c3nc4ccc(-c5ccc(F)cc5)cc4s3)o2)CC1
2. O=C(c1nnc(N2CC[C@H](c3ccccc3)C2)o1)c1nc2ccc(-c3ccccc3)cc2s1
3. CC(C)(C)OC(=O)N1CCC(CCc2nnc(C(=O)c3nc4ccc(-c5ccc(F)cc5)cc4s3)o2)CC1
4. O=C(c1nnc(NCCc2ccccc2F)o1)c1nc2ccc(-c3ccc(F)cc3)cc2s1

1. < 0.01 µM
2. 0.45 µM
3. < 0.01 µM
4. 0.29 µM

---

- measurement-target: Endothelial lipase (EL) (Homo sapiens (Human), UniProt Q9Y5X9)
Provide the reported pIC50 of each item.
One number for each entry, as −log10 of the molar value.

O=C(c1nnc(N[C@@H]2CCNC2=O)o1)c1nc2ccc(-c3ccccc3)cc2s1	7.34
O=C(c1nnc(N2CC[C@@H](c3ccccc3)C2)o1)c1nc2ccc(-c3ccccc3)cc2s1	6.51
CC1(Cc2nnc(C(=O)c3nc4ccc(-c5ccccc5)cc4s3)o2)NC(=O)NC1=O (stereo not shown)	7.68
NS(=O)(=O)CCNc1nnc(C(=O)c2nc3ccc(-c4ccccc4)cc3s2)o1	7.06
O=C(c1nnc(N(Cc2nnc(C3CC3)o2)[C@H]2CCNC2=O)o1)c1nc2ccc(-c3ccccc3)cc2s1	7.46

Can you give me pIC50 for all of these, one by one?
1. NC(=O)NCc1nnc(C(=O)c2nc3ccc(-c4ccccc4)cc3s2)o1
2. CC(C)NC(=O)CNc1nnc(C(=O)c2nc3ccc(-c4ccccc4)cc3s2)o1
3. NC(=O)[C@@H](CCC(F)(F)F)Nc1nnc(C(=O)c2nc3ccc(-c4ccccc4)cc3s2)o1

1: 7.60; 2: 6.82; 3: 7.55
